Target: NaV1.8 (Homo sapiens)
Sequence (Q9Y5Y9 whole entry): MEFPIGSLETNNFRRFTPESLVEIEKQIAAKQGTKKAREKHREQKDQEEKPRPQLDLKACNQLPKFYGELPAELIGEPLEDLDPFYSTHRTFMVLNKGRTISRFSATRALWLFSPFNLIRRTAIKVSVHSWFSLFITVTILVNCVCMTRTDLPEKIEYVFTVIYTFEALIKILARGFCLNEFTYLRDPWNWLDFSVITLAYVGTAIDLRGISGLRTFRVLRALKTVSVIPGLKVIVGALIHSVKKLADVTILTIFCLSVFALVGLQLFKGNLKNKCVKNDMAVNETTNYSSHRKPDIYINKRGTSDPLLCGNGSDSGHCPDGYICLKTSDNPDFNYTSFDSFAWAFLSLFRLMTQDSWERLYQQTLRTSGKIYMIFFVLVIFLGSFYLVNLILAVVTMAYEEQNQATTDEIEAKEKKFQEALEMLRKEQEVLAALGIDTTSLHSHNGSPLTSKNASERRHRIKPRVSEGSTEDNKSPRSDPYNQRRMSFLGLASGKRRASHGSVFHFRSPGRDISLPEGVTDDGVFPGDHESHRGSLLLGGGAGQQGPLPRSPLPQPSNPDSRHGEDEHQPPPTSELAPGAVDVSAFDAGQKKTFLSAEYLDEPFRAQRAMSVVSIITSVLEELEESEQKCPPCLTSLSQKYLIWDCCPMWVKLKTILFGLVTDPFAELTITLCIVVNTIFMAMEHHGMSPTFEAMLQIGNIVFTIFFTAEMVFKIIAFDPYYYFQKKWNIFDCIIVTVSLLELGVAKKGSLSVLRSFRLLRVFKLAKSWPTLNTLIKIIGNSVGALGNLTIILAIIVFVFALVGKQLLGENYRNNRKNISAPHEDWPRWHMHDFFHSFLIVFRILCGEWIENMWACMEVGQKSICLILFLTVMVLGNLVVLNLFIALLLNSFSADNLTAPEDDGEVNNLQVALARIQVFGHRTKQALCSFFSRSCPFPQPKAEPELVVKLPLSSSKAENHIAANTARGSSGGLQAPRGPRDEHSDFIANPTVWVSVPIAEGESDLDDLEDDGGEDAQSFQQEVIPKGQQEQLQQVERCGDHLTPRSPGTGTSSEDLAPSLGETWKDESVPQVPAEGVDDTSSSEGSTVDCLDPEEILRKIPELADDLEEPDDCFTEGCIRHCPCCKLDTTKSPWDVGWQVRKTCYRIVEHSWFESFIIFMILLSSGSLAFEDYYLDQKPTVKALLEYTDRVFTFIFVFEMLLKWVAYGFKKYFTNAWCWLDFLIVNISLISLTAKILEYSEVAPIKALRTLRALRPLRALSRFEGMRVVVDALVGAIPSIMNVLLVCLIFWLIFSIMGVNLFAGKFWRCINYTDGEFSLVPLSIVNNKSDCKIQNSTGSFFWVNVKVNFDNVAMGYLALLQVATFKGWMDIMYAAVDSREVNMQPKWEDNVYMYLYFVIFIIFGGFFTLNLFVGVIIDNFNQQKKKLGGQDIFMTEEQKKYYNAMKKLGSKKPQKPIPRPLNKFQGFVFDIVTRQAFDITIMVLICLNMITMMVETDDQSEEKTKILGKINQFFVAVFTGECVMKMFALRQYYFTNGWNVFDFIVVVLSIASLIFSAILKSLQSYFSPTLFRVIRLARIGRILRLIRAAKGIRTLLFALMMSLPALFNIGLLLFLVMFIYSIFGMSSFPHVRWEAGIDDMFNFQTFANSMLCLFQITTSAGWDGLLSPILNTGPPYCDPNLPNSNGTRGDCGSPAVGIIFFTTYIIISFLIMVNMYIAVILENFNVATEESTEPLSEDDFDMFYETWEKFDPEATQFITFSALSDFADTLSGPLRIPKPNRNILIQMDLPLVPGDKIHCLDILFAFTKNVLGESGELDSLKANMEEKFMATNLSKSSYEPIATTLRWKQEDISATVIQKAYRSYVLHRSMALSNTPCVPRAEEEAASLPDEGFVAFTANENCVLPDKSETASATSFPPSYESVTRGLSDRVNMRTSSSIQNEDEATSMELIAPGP
Experiment: Whole-cell patch clamp blocking activity against NaV1.8 channel current
Details: CHO cell line stably expressing Nav1.8 (SCN10A: NM_006514), patch clamp
Rule: IC50 below 3 nM gives Condition met, anything at or above gives Condition not met.

1) O=C(Nc1cc[n+]([O-])nc1)c1c(Oc2ccc(OC(F)(F)F)cc2)ccc(C(F)(F)F)c1Cl Condition met
2) O=C(Nc1cc[n+]([O-])nc1)c1c(Oc2ccc(OC(F)(F)F)cc2)ccc(Br)c1F Condition not met
3) O=C(Nc1cc[n+]([O-])nc1)c1c(Oc2ccc(OC(F)(F)F)c(F)c2)ccc(C(F)(F)F)c1F Condition not met
4) COc1cc(F)ccc1Oc1cc(C(F)(F)F)c(Cl)c(F)c1C(=O)Nc1ccc[n+]([O-])c1 Condition met
5) O=C(Nc1cc[n+](O)nc1)c1c(Oc2ccc(OC(F)(F)F)cc2)ccc(C(F)(F)F)c1F Condition not met
6) O=C(Nc1ccc[n+](O)c1)c1c(Oc2ccc(OC(F)(F)F)cc2)ccc(C(F)(F)F)c1Cl Condition met
7) O=C(Nc1ccc[n+]([O-])c1)c1c(Oc2ccc(OC(F)(F)F)cc2)cc(C(F)(F)F)c(Cl)c1F Condition met
8) COc1cc(F)ccc1Oc1cc(Cl)c(Cl)cc1C(=O)Nc1ccc[n+]([O-])c1 Condition not met
9) O=C(Nc1ccc[n+]([O-])c1)c1c(Oc2ccc(OC(F)(F)F)cc2)ccc(I)c1F Condition not met
10) O=C(Nc1ccc[n+](O)c1)c1c(Oc2ccc(OC(F)(F)F)cc2)ccc(C(F)(F)F)c1F Condition not met
11) O=C(Nc1ccc[n+]([O-])c1)c1cc(Cl)c(Cl)cc1Oc1ccc(OC(F)(F)F)cc1 Condition not met
12) O=C(Nc1cc[n+]([O-])nc1)c1c(Oc2ccc(OC(F)(F)F)cc2)cnc(C(F)(F)F)c1F Condition not met
13) O=C(Nc1cc[n+]([O-])nc1)c1c(F)cc(C(F)(F)F)cc1Oc1ccc(OC(F)(F)F)cc1 Condition not met
14) O=C(Nc1ccn[n+]([O-])c1)c1cc(Cl)c(Cl)cc1Oc1ccc(OC(F)(F)F)c(F)c1 Condition not met
15) COc1cc(F)ccc1Oc1cc(C(F)(F)F)c(Cl)cc1C(=O)Nc1ccc[n+]([O-])c1 Condition met
16) O=C(Nc1ccc[n+](O)c1)c1c(Oc2ccc(OC(F)(F)F)cc2)ccc(Br)c1F Condition not met
17) Cc1cc(OC(F)(F)F)ccc1Oc1ccc(C(F)(F)F)c(F)c1C(=O)Nc1ccc[n+](O)c1 Condition met
18) O=C(Nc1ccn[n+]([O-])c1)c1c(Oc2ccc(OC(F)(F)F)cc2)ccc(C(F)(F)F)c1Cl Condition met
19) O=C(Nc1ccc[n+]([O-])c1)c1cc(Cl)c(C(F)(F)F)cc1Oc1ccc(OC(F)(F)F)cc1 Condition met
20) O=C(Nc1ccc[n+]([O-])c1)c1c(Oc2ccc(OC(F)(F)F)cc2)cc(Cl)c(Cl)c1F Condition met
21) O=C(Nc1cc[n+]([O-])nc1)c1cc(Cl)c(Cl)cc1Oc1ccc(OC(F)(F)F)c(F)c1 Condition not met
22) O=C(Nc1ccc[n+](O)c1)c1c(Oc2ccc(OC(F)(F)F)cc2)ccc(OC(F)(F)F)c1F Condition not met

###

Experiment: In vivo pharmacokinetics of rat, single intravenous injection or oral administration by gavage
Parameters: species or system Male Sprague Dawley rats
Conditions: male, Sprague-Dawley, plasma, intravenous administration 1 mg/kg
Measured half-life, listed per entry for reference.
valueType: half-life (h)

1) O=C(Nc1ccc[n+]([O-])c1)c1cc(Cl)c(C(F)(F)F)cc1Oc1ccc(OC(F)(F)F)cc1 12.3
2) O=C(Nc1cc[n+](O)nc1)c1c(Oc2ccc(OC(F)(F)F)cc2)ccc(C(F)(F)F)c1F 20.1
3) Cc1cc(F)ccc1Oc1cc(C(F)(F)F)c(Cl)cc1C(=O)Nc1ccc[n+]([O-])c1 2.28
4) O=C(Nc1ccc[n+]([O-])c1)c1cc(Cl)c(Cl)cc1Oc1ccc(OC(F)(F)F)cc1 0.7
5) O=C(Nc1ccc[n+]([O-])c1)c1c(Oc2ccc(OC(F)(F)F)cc2)cc(C(F)(F)F)c(Cl)c1F 5.24
6) O=C(Nc1ccc[n+]([O-])c1)c1c(Oc2ccc(OC(F)(F)F)c(F)c2)cc(C(F)(F)F)c(Cl)c1F 4.53
7) O=C(Nc1cc[n+]([O-])nc1)c1c(Oc2ccc(OC(F)(F)F)c(F)c2)ccc(C(F)(F)F)c1F 13.1

###

Experiment: In vivo pharmacokinetics of rat, single intravenous injection or oral administration by gavage
Set-up: species or system Male Sprague Dawley rats
Conditions: male, Sprague-Dawley, plasma, intravenous administration 1 mg/kg, read-out: VZ
valueType: Vd

compound	value
O=C(Nc1cc[n+]([O-])nc1)c1c(Oc2ccc(OC(F)(F)F)c(F)c2)ccc(C(F)(F)F)c1F [Embodiment A56]	1.97 L/kg
O=C(Nc1ccc[n+]([O-])c1)c1cc(Cl)c(C(F)(F)F)cc1Oc1ccc(OC(F)(F)F)cc1 [Embodiment A69]	0.312 L/kg
O=C(Nc1cc[n+](O)nc1)c1c(Oc2ccc(OC(F)(F)F)cc2)ccc(C(F)(F)F)c1F [Embodiment A46]	1.85 L/kg

###

Biological target: NaV1.8 (Homo sapiens)
Construct: expressed in transfected cells
Experiment: Whole-cell patch clamp blocking activity against NaV1.8 channel current
Assay type: cell-based
Details: against NaV1.8 at 100 nM, CHO cell line stably expressing Nav1.8, patch clamp
Description: 1. Test method: patch clamp technique was used to detect the influence of compounds on voltage-gated sodium channel (NaV) 1.1-1.8 subtype current […] The voltage stimulation scheme of whole-cell patch clamp recording of Nav channel current was as follows: first the membrane potential of the cell was clamped at −130 mV, and then the voltage was stepped to −40 mV or −20 mV at 10 mv step intervals for 8 s. […] The peak amplitude of its inward current was measured to determine its half-inactivation voltage. […]
Measured Blocking rate (%) @100 nM, listed per entry for reference.
valueType: Blocking rate (%) @100 nM

1. O=C(Nc1ccc[n+]([O-])c1)c1c(Oc2ccc(F)cc2Cl)ccc(C(F)(F)F)c1F 79.66
2. O=C(Nc1ccc[n+]([O-])c1)c1c(Oc2ccc(OC(F)(F)F)cc2)cnc(C(F)(F)F)c1F 87.57
3. O=C(Nc1ccc[n+]([O-])c1)c1c(Oc2ccc(OC(F)(F)F)cc2)ccc(CC2CC2)c1F 95.70
4. O=C(Nc1ccc[n+]([O-])c1)c1cc(Cl)c(Br)cc1Oc1ccc(OC(F)(F)F)cc1 88.78
5. Cc1cc(F)ccc1Oc1cc(C(F)(F)F)c(Br)c(F)c1C(=O)Nc1ccc[n+]([O-])c1 98.75
6. O=C(Nc1cc[n+]([O-])nc1)c1ccc(C(F)(F)F)cc1Oc1ccc(OC(F)(F)F)c(F)c1 79.32
7. O=C(Nc1ccc[n+]([O-])c1)c1cc(Cl)c(OC(F)(F)F)cc1Oc1ccc(OC(F)(F)F)cc1 92.81

###

Measured bioavailability, listed per entry for reference.
Assay: In vivo pharmacokinetics of rat, single intravenous injection or oral administration by gavage
Parameters: species or system Male Sprague Dawley rats
Conditions: male, Sprague-Dawley, plasma, po, intragastric (gavage) 10 mg/kg vs intravenous 1 mg/kg
Description: In this experimental embodiment, the in vivo pharmacokinetics of rat was evaluated by a single intravenous injection or oral administration by gavage. […]
valueType: bioavailability (%)

compound	value
O=C(Nc1cc[n+]([O-])nc1)c1c(Oc2ccc(OC(F)(F)F)c(F)c2)ccc(C(F)(F)F)c1F [Embodiment A56]	68.2
O=C(Nc1cc[n+](O)nc1)c1c(Oc2ccc(OC(F)(F)F)cc2)ccc(C(F)(F)F)c1F [Embodiment A46]	46.8
Cc1cc(F)ccc1Oc1cc(C(F)(F)F)c(Cl)cc1C(=O)Nc1ccc[n+]([O-])c1 [Embodiment A103]	50.7
O=C(Nc1ccc[n+]([O-])c1)c1c(Oc2ccc(OC(F)(F)F)c(F)c2)cc(C(F)(F)F)c(Cl)c1F [Embodiment A84]	35.7

###

Assay: In vivo pharmacokinetics of rat, single intravenous injection or oral administration by gavage
Design: species or system Male Sprague Dawley rats
Conditions: male, Sprague-Dawley, plasma, po, intragastric (gavage) 10 mg/kg
Rule: AUC(0-inf) below 100 µg·h/mL gives label 1, anything at or above gives label 0.

compound	labelValue
O=C(Nc1ccc[n+]([O-])c1)c1cc(Cl)c(C(F)(F)F)cc1Oc1ccc(OC(F)(F)F)cc1 [Embodiment A69]	label 0
O=C(Nc1ccc[n+]([O-])c1)c1c(Oc2ccc(OC(F)(F)F)c(F)c2)cc(C(F)(F)F)c(Cl)c1F [Embodiment A84]	label 1
O=C(Nc1cc[n+]([O-])nc1)c1c(Oc2ccc(OC(F)(F)F)c(F)c2)ccc(C(F)(F)F)c1F [Embodiment A56]	label 0
O=C(Nc1cc[n+](O)nc1)c1c(Oc2ccc(OC(F)(F)F)cc2)ccc(C(F)(F)F)c1F [Embodiment A46]	label 0
Cc1cc(F)ccc1Oc1cc(C(F)(F)F)c(Cl)cc1C(=O)Nc1ccc[n+]([O-])c1 [Embodiment A103]	label 1
O=C(Nc1ccc[n+]([O-])c1)c1c(Oc2ccc(OC(F)(F)F)cc2)cc(C(F)(F)F)c(Cl)c1F [Embodiment A68]	label 0
O=C(Nc1ccc[n+]([O-])c1)c1cc(Cl)c(Cl)cc1Oc1ccc(OC(F)(F)F)cc1 [Embodiment A11]	label 1
